assay: Henry solubility constant Hcp at 298.15 K (mol/(m3 Pa)); conditions: reference: Abusallout et al. (2022)
REPORTED_ENDPOINT: Henry solubility constant Hcp

COMPOUND_SMILES: O=S(=O)(O)CCC(F)(F)C(F)(F)C(F)(F)C(F)(F)F
REPORTED_ENDPOINT: Henry solubility constant Hcp
ENDPOINT_RESULT: 0.0045

1 = OCCC(F)(F)C(F)(F)C(F)(F)C(F)(F)C(F)(F)C(F)(F)C(F)(F)C(F)(F)F
2 = O=C(O)CC(F)(F)C(F)(F)C(F)(F)C(F)(F)C(F)(F)C(F)(F)C(F)(F)C(F)(F)F
3 = OCCC(F)(F)C(F)(F)C(F)(F)C(F)(F)C(F)(F)C(F)(F)F
4 = FC(F)(F)C(F)(F)C(F)(F)C(F)(F)C(F)(F)C(F)(F)CCI
Lookup: Given 4 compounds, produce a descending ranking by Henry solubility constant Hcp. State the ranking by listing the labels in the requested order.
Found: 4, 2, 3, 1
(4: 0.0013, 2: 0.00058, 3: 0.00033, 1: 0.0002)
